target: human recombinant HDAC1 (Homo sapiens); construct: purchased Enzo Life Science BML-SE456; assay: HDAC1 enzyme activity inhibition assay (HDAC Fluorimetric Drug Discovery Kit); format: biochemical; details: human recombinant HDAC1, Fluor de Lys substrate 10 μM, 30° C. 60 minutes
Sequence (Q13547 whole entry): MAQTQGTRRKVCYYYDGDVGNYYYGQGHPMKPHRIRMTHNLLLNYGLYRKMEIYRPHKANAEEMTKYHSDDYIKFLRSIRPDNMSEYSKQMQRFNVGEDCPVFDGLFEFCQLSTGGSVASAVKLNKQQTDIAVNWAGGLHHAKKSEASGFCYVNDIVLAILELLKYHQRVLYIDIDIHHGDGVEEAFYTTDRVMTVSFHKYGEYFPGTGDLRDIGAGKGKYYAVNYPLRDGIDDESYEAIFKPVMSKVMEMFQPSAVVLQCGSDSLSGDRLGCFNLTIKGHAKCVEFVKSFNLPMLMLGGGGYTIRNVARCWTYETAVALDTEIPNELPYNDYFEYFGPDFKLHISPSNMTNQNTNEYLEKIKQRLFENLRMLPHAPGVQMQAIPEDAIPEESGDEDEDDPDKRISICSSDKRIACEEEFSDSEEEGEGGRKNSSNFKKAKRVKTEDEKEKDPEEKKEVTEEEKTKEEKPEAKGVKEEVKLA
assay readout: IC50 (µM)

As a guide, the following entries are already answered.
{"columns": ["structure", "assay readout", "value measured"],
 "data": [
  ["O=C(N1CCOCC1)N(Cc1ccc(-c2nnc(C(F)(F)F)o2)cc1F)c1cccc(Cl)c1", "IC50", 12.7],
  ["O=C(N1CCOCC1)N(Cc1ccc(-c2nnc(C(F)F)o2)cc1F)c1ccc(F)cc1F", "IC50", 37.1],
  ["O=C(N1CCS(=O)(=O)CC1)N(Cc1ccc(-c2nnc(C(F)F)o2)cn1)c1ccc(Cl)cc1", "IC50", 64.4],
  ["CCN1CCN(C(=O)N(Cc2ccc(-c3nnc(C(F)(F)F)o3)cc2F)c2ccc(OC)cc2)CC1", "IC50", 9],
  ["CN(C)[C@@H]1CCN(C(=O)N(Cc2ccc(-c3nnc(C(F)F)o3)cc2F)c2ccc(F)cc2Cl)C1", "IC50", 36.5],
  ["CCN1CCN(C(=O)N(Cc2ccc(-c3nnc(C(F)(F)F)o3)cc2F)c2ccc(F)c(Br)c2)CC1", "IC50", 8.44],
  ["O=C(N1CCOCC1)N(Cc1ccc(-c2nnc(C(F)(F)F)o2)cn1)c1ccc(F)cc1F", "IC50", 23.9],
  ["CCN1CCN(C(=O)N(Cc2ccc(-c3nnc(C(F)(F)F)o3)cc2F)c2cccc(F)c2F)CC1", "IC50", 15.7],
  ["O=C(N1CCN(CCO)CC1)N(Cc1ccc(-c2nnc(C(F)(F)F)o2)cc1F)c1ccc(F)c(Cl)c1", "IC50", 7.47],
  ["O=C(N1CCOCC1)N(Cc1ccc(-c2nnc(C(F)(F)F)o2)cn1)c1cccc(Cl)c1", "IC50", 15.3]
]}

1 = O=C(N1CCOCC1)N(Cc1ccc(-c2nnc(C(F)(F)F)o2)cc1F)c1ccc(Cl)cc1
2 = O=C(N1CCOCC1)N(Cc1ccc(-c2nnc(C(F)(F)F)o2)cn1)c1cccc(F)c1
Quick check, higher IC50 between 1 and 2 ? // output: label of the selected item
1
